tested on: Vero E6 infected with SARS-CoV-2; experiment: inhibition of SARS-CoV-2 cytopathic effect; higher = more antiviral protection, active = above 15; conditions: 1 nM; 48 h
Quantity name: inhibition of SARS-CoV-2 cytopathic effect (%)
Lab book: enter the figure in %, no units written.

Oc1cccc(-c2nc(N3CCOCC3)c3oc4ncccc4c3n2)c1: -0.17
CC(C)c1cc2c(cc1S(=O)(=O)O)[C@@]1(C)CCC[C@@](C)(C(=O)O)[C@@H]1CC2 [ecabet]: -2.02
O=C(N[C@H]1CN2CCC1CC2)c1ccc(Cl)cc1: 1.35
COC(=O)C1=CO[C@@H](O)[C@@H]2C(CO)=CC[C@H]12 [genipin]: -1.26
COc1ccc2nc3cc(Cl)ccc3c(Nc3cc(CN4CCCC4)c(O)c(CN4CCCC4)c3)c2n1 [pyronaridine]: 3.08

Give a short answer stating reported inhibition of SARS-CoV-2 cytopathic effect for CCCCCCCC/C=C/CCCCCCCC(=O)OC[C@H]1O[C@@H](n2ccc(N)nc2=O)C(F)(F)[C@@H]1O [gemcitabine-elaidate] . -0.31

Give a short answer stating reported inhibition of SARS-CoV-2 cytopathic effect for O=C/C=C/c1ccccc1 [cinnamaldehyde] . 1.16

Give a short answer stating reported inhibition of SARS-CoV-2 cytopathic effect for C[C@]12CC[C@H](O)C[C@H]1CC[C@@H]1[C@@H]2C[C@@H](O)[C@]2(C)[C@@H](C3=CC(=O)OC3)CC[C@]12O [digoxigenin] . -0.69
